Values compiled from ChEMBL document CHEMBL4513216.

Tested on: Plasmodium berghei
assay_text: Screen against P. berghei liver stage (PbLuc), transformed with Luciferase, at 10uM
Type: functional, HepG2
recorded_conditions: tested at 10 uM
The whole screen tested about 69,000 compounds, of which about 8,600 (12%) showed an effect of 50% or more. For the sample, strong results were picked, then their nearest neighbours and some compounds at random.
assay_endpoint: INHIBITION (%)
A number alone suffices; assume %.

Below: 3 compounds and their reported INHIBITION.
Task: GET /values?readout=INHIBITION&item= COc1cc(F)c(NCc2nc3ccccc3n2C)cc1OC
Output: 59.8

Task: Then what about the compound COc1ccc(-n2cc3[nH]c(=O)n(C(C)C)n3c2=O)cc1 ?
Output: -12.5

Task: Record: Cc1nc2c(c(NCCN3CCOCC3)n1)CCN(C)C2
Output: 7.55

New cases:
Task: What does the data say about its INHIBITION? Entry: CCN(CC)CCCNc1nc(C)nc2c1CCN(C)C2
Output: 5.185

Task: Quick one: C[C@@H]1C[C@H](C(F)(F)F)n2nc(C3CCN(C(=O)C(C)(C)C)CC3)cc2N1
Output: 8.72

Task: # repeat for CCc1ncc(CN[C@@H]2CCCN(C(C)=O)[C@H]2c2ccc(C)s2)cn1
Output: 23.2

====

System: Plasmodium berghei
assay_text: Screen against P. berghei liver stage (PbLuc), transformed with Luciferase, at 10uM
Type: functional, HepG2
recorded_conditions: tested at 10 uM
The campaign covered roughly 69,000 compounds. About 8,600 (12%) showed an effect of 50% or more. The sample as a whole holds a higher share of strong results than the screen did.
assay_endpoint: INHIBITION (%)
Answer format: numeric, % implied, no suffix.

Task: What INHIBITION value was documented for this compound, CCc1nnc2n1CCN(CC(=O)N1CCc3ccccc3C1)C2 ?
Output: 59.7

Task: Now try CN(C)c1ccc(CN(CCCn2ccnc2)Cc2c[nH]cn2)cc1 .
Output: 80.2

Task: Same for CC(C)c1nnc2n1CCN(CC(=O)N1CCc3sccc3C1)C2
Output: -12.915

Task: Another: Cn1ccnc1CNC(=O)N(CCCO)C1CCCc2ccccc21 (configuration not stated)
Output: -17.4

Task: Repeat for the following compound: CC(C)CCN1C2(CCN(C(=O)CN(C)C)C2)c2ccccc2S1(=O)=O (configuration not stated)
Output: 21.4

Task: Same thing, different compound: CN(Cc1ccccn1)C(=O)c1nn(C)c2c1CCN(CC1CC1)C2
Output: 48.2

Task: Try this compound next: CC(c1ccccn1)N(C)Cc1ccc(-n2ccnc2)cc1 (configuration not stated)
Output: 37.6

Task: Now give it for CC(=O)c1cnc(NCCCN2CCOCC2)nc1C too.
Output: -4.96

More entries:
Task: I'd like to know its INHIBITION. The compound in question is Cc1occc1C(=O)N1CCCn2cnc(CN3CCCC3=O)c2C1
Output: 34.2

Task: Same question for Cc1cc2nc(SCC(=O)N3CCCC3)n(C)c(=O)c2[nH]1 please.
Output: 19.3

Task: Then what about the compound CC1(CO)COC(Cc2ccc(Cl)cc2)=N1 (configuration not stated) ?
Output: 0.29

Task: What do you have for CCCOc1ccc(CC2=NC(C)(CO)CO2)cc1 (configuration not stated) ?
Output: 58.3
